Source listed as ChEMBL document CHEMBL1132215.

assay: Second-order rate constant for acyl-interchange reactions between glutathione and the compound
Format: ADME
Measured k2 accompanies every entry in the list below.
Note: unit M⁻¹ s⁻¹ is implicit; provide only the numeric part.

Below: 3 compounds and their reported k2.
CCSC(=O)N(O)c1ccc(Cl)cc1 | 5.83e-06
CC[S+]([O-])C(=O)N(C)c1ccc(Cl)cc1 (centres undefined) | 2.33
CC[S+]([O-])C(=O)N(O)c1ccc(Cl)cc1 (centres undefined) | 30.7

Shift focus to the following entry.
Measured k2 of CC[S+]([O-])C(=O)N(C)O (centres undefined) : 9.83
